- ASSAY SYSTEM: T1, rat PAI-1 (rat, UniProt P20961 24-402)
- T1 sequence: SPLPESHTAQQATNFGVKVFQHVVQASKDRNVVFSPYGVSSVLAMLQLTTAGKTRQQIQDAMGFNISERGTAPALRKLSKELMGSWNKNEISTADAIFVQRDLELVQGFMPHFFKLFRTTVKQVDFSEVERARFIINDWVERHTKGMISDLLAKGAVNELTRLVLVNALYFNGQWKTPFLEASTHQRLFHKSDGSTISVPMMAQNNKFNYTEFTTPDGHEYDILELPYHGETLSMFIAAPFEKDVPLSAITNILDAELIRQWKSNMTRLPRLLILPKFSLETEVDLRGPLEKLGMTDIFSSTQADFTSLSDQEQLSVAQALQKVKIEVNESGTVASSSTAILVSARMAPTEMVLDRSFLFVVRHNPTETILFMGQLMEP
- METHOD: cell-based or functional assay
Kindly supply the reported Chromogenic (IC50 in nM) rat values for the records listed here.
One number for each entry, in nM.

Below, 2 binders whose answers are already recorded.
BINDER	Chromogenic (IC50 in nM) rat
Antibody 10 scFv (scFv) QVQLQQSGAEVKKPGSSVKVSCKASGGTFSSYAISWVRQAPGQGLEWMGGIIPTFGTANYAQKFQGRVTITADESTSTAYMELSSLRSEDTAVYYCAREKRQWLEGHFDYWGRGTPVTVSSDIQMTQSPSFLSASIGDRVAITCRASEGIYHSLAWYQQKPGKAPKLLIYRASSLASGAPSRFSGSGSGTDFTLTISSLQPDDFATYYCQQYSNYPLTFGGGTRLEIK	296
Antibody 02 scFv (scFv) QVQLVQSGAEVKKPGSSVKVSCKASGGTFSSYAISWVRQAPGQGLEWMGGIIPTFGTANYAQKFQGRVTITADESTSTAYMELSSLRSEDTAVYYCAREKRQWLEGHFDYWGRGTLVTVSSDIQMTQSPSTLSASVGDRVTITCRASEGIYHSLAWYQQKPGKAPKLLIYKASSLASGVPSRFSGSGSGTEFTLTISSLQPDDFATYYCQQYSDYPLTFGGGTKVEIK	530

# ---- query binder ----
In: Any idea what Chromogenic (IC50 in nM) rat was measured for Antibody 01 scFv (scFv) QVQLVQSGAEVKKPGSSVKVSCKASGGTFSSYAISWVRQAPGQGLEWMGGIIPIFGTANYAQKFQGRVTITADESTSTAYMELSSLRSEDTAVYYCAREKRQWLEGHFDYWGRGTLVTVSSDIQMTQSPSTLSASVGDRVTITCRASEGIYRSLAWYQQKPGKAPKLLIYKASSLASGVPSRFSGSGSGTEFTLTISSLQPDDFATYYCQQYSNYPLTFGGGTKVEIK ?
Out: 208
